The measured values listed here are drawn from ChEMBL document CHEMBL1156140.

# System: MCF7
# Test summary: Cytotoxicity against human MCF7 cells by MTT assay
# Type: functional, cell-based
# Assay conditions: Homo sapiens, MCF7
Measured property: log10(IC50) (log10 of the value in µM)
Heads up: the numbers are on a log10 scale; they represent IC50 in µM.

Worked cases, log10(IC50) given:
# lookup: MCF7 log10(IC50), key = COc1ccc(C2CC2c2cc(OC)c(OC)c(OC)c2)cc1NC(=O)OC(C)(C)C (stereo unspecified)
1.07

Name the recorded log10(IC50) of COc1ccc(/C=C\c2cc(OC)c(OC)c(OC)c2)cc1OP(=O)(O)O [FOSBRETABULIN DISODIUM] , assay system MCF7.
-2.70

Under MCF7, report log10(IC50) for COCOc1cc(C#Cc2cc(OC)c(OC)c(OC)c2)ccc1OC
1.41

Write down the reported log10(IC50) (system: MCF7) of COc1ccc(/C=C\c2cc(OC)c(OC)c(OC)c2)cc1NC(=O)OC(C)(C)C
0.59

Quote MCF7 log10(IC50) for entry COc1ccc(C2CC2c2cc(OC)c(OC)c(OC)c2)cc1OP(=O)(OCc1ccccc1)OCc1ccccc1 (stereo unspecified) .
1.03

Would you kindly look at the next entry?
Supply log10(IC50) measured with MCF7 for COc1ccc(C2CC2c2cc(OC)c(OC)c(OC)c2)cc1N (stereo unspecified) .
-0.67

----------
Reported IC50 is given for each of the following compounds.
# Tested on: MCF7
# Test summary: Cytotoxicity against human MCF7 cells by MTT assay
# Assay type: functional, cell-based
# Assay conditions: Homo sapiens, MCF7

Annotate the compound COc1ccc(/C=C\c2cc(OC)c(OC)c(OC)c2)cc1O with its measured IC50.
2.4 nM

Let me know recorded IC50 for COc1ccc(C#Cc2cc(OC)c(OC)c(OC)c2)cc1O , thanks.
1640 nM

Report IC50 for COCOc1cc(/C=C\c2cc(OC)c(OC)c(OC)c2)ccc1OC
269 nM

Look up and state reported IC50 for COc1ccc([C@@H]2C[C@@H]2c2cc(OC)c(OC)c(OC)c2)cc1O
102 nM

Using known records, supply IC50 for COc1ccc(/C=C\c2cc(OC)c(OC)c(OC)c2)cc1OP(=O)(OCc1ccccc1)OCc1ccccc1
1170 nM

Return the recorded IC50 value; entry: COc1ccc(C2CC2c2cc(OC)c(OC)c(OC)c2)cc1OP(=O)(O)O (stereo not given)
297 nM

Read the entry COc1ccc(/C=C\c2cc(OC)c(OC)c(OC)c2)cc1N and write its reported IC50.
3.5 nM

Quickly give me recorded IC50 for COCOc1cc(C2CC2c2cc(OC)c(OC)c(OC)c2)ccc1OC (stereo not given)
14000 nM

Read off the recorded IC50 for COc1ccc(C#Cc2cc(OC)c(OC)c(OC)c2)cc1NC(=O)OC(C)(C)C
> 30000 nM

State, in one line, measured IC50 of COc1ccc(C#Cc2cc(OC)c(OC)c(OC)c2)cc1N
> 30000 nM

----------
# System: MCF7
# Test summary: Cytotoxicity against human MCF7 cells by MTT assay
# Type: functional, cell-based
# Assay conditions: mcf7
Measured property: IC50 (nM)
Quick reminder: number only, in nM, skip the unit.

State, in one line, measured IC50 of COc1ccc(/C=C\c2cc(OC)c(OC)c(OC)c2)cc1NC(=O)[C@@H](N)CO
25

Consider the additional molecule presented here.
Return value of IC50 for input COc1ccc(/C=C\c2cc(OC)c(OC)c(OC)c2)cc1NC(=O)[C@@H](N)CO [OMBRABULIN] , no commentary.
3.1

----------
# Test system: HeLa
# Test summary: Cytotoxicity against human HeLa cells by MTT assay
# Format: functional, cell-based
# Assay conditions: Homo sapiens, HeLa
Measured property: IC50 (µM)
Report as a plain number; the unit µM is understood.

Sample records with IC50:
Answer with reported IC50 of COc1ccc(/C=C\c2cc(OC)c(OC)c(OC)c2)cc1OP(=O)(OCc1ccccc1)OCc1ccccc1
0.246

Hello, please tell me recorded IC50 for this one: COc1ccc(C2CC2c2cc(OC)c(OC)c(OC)c2)cc1N (stereo not given)
0.041

// fetch IC50 given entry COc1ccc(/C=C\c2cc(OC)c(OC)c(OC)c2)cc1OP(=O)(O)O [FOSBRETABULIN DISODIUM]
0.00043

Next:
Given the compound COc1ccc(C2CC2c2cc(OC)c(OC)c(OC)c2)cc1OP(=O)(OCc1ccccc1)OCc1ccccc1 (stereo not given) , write its reported IC50.
10.2

For COc1ccc(/C=C\c2cc(OC)c(OC)c(OC)c2)cc1N , write its IC50.
0.00053

Report IC50 for COc1ccc([C@@H]2C[C@@H]2c2cc(OC)c(OC)c(OC)c2)cc1O
0.028

Answer with the recorded IC50 of COc1ccc(C2CC2c2cc(OC)c(OC)c(OC)c2)cc1NC(=O)OC(C)(C)C (stereo not given) only.
10.1

Note IC50 for the compound shown: COc1ccc(C2CC2c2cc(OC)c(OC)c(OC)c2)cc1OP(=O)(O)O (stereo not given)
0.37

Give the reported value of IC50 for this record: COCOc1cc(C#Cc2cc(OC)c(OC)c(OC)c2)ccc1OC
26.8
